Test system: A/Washington/29/2009 (H1N1)
assay-name: microbe, parasite or virus in culture
Type: cell-based, influenza A virus
condition-summary: Influenza A virus, H1N1, MDCK
measure: EC50 (nM)
Provide the reading as a plain figure in nM.

# input Report the value of EC50 obtained on A/Washington/29/2009 (H1N1) for `Cc1cc(OCc2nnc(SC3CCCC3)n2-c2cccnc2)ccc1-c1ccc(S(C)(=O)=O)cc1` .
# output 41
